Where these numbers come from: patent US5064853A

pIC50: −log10 of the molar value.
Form: system (UniProtKB P30551), quantity (pIC50), values below.
Sequence (P30551 whole entry): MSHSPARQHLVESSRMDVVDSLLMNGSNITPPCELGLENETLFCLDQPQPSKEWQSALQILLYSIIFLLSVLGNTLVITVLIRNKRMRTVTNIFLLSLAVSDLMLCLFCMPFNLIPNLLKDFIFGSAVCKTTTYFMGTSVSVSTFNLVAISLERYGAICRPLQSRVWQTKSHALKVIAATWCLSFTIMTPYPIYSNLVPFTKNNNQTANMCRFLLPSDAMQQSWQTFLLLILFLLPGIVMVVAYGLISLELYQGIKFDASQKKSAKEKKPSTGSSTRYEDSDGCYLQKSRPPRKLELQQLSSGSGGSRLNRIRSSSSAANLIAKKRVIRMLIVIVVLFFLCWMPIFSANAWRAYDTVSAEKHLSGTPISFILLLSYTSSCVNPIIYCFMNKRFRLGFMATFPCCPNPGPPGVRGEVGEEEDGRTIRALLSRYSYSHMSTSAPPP
ASSAY READOUT: pIC50

Use these answered entries as a reference point.
compound=O=C(O)CC[C@H](NC(=O)c1cc2ccccc2[nH]1)C(=O)NC(c1ccc(Cl)cc1)c1ccc(Cl)cc1 assay_readout=pIC50 measurement=7.02
compound=O=C(O)CC[C@H](NC(=O)c1cc2ccccc2[nH]1)C(=O)NC1c2ccccc2CCc2ccccc21 assay_readout=pIC50 measurement=5.78

P: Cc1ccc(C(NC(=O)[C@H](CCC(=O)O)NC(=O)c2cc3ccccc3[nH]2)c2ccc(C)cc2)cc1
Q: COc1ccccc1C(NC(=O)[C@H](CCC(=O)O)NC(=O)c1cc2ccccc2[nH]1)c1ccccc1 (stereo partly shown)
Hello, I am sorting some records. Could you say if P or Q has the smaller pIC50 value? # answer = label of selected item
P
(P: 7.28, Q: 7.49)
